# target: Human recombinant renin (Homo sapiens, UniProt P00797)
# Construct: purchased Proteos
# Sequence (P00797 67-406): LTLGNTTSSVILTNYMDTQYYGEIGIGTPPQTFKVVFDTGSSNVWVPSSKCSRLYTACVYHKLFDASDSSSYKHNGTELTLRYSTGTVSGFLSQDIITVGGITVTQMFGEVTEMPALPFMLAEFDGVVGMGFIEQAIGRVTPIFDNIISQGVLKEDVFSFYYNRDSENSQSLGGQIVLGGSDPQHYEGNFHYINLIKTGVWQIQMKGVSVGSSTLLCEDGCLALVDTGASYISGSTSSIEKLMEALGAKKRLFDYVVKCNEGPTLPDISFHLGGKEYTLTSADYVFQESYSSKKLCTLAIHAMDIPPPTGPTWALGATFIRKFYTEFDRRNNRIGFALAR
# experiment_notes: Inhibition of human recombinant renin (buffer)
# Format: biochemical
# experimental_setup: 100 pM renin, 50 mM MOPS pH 7.4, 37° C., 3 hours; read-out: Human Renin IC50 (buffer)
experimental_readout: IC50 (nM)

COCCCc1ccc(SC)c(CN(C(=O)[C@H]2CNCC[C@@H]2c2ccn(C)c(=O)c2)C2CC2)c1 (relative stereo) : 4.7
Cn1ccc([C@@H]2CCNC[C@H]2C(=O)N(Cc2cn(Cc3cccc(F)c3)c3cccc(F)c23)C2CC2)cc1=O (relative stereo) : 0.06
COCCCc1cc(CN(C(=O)[C@@H]2CNCC[C@H]2c2ccn(C)c(=O)c2)C2CC2)cc(-c2ccccc2)c1 (relative stereo) : 15
Cn1ccc([C@@H]2CCNC[C@H]2C(=O)N(Cc2cn(Cc3ccncc3)c3cccc(F)c23)C2CC2)cc1=O (relative stereo) : 0.2

(a) COCCCc1cc(CN(C(=O)[C@@H]2CNCC[C@H]2c2ccn(C)c(=O)c2)C2CC2)c2ccccc2n1 (relative stereo)
(b) COCCCn1cc(CN(C(=O)[C@@H]2CNCC[C@H]2c2ccn(C)c(=O)c2)C2CC2)c(=O)n(CCCOC)c1=O (relative stereo)
(c) Cc1c(Br)cc(CN(C(=O)[C@@H]2CNCC[C@H]2c2ccn(C)c(=O)c2)C2CC2)cc1CCCOC(F)F (relative stereo)
(d) COCCCc1cc(CN(C(=O)[C@@H]2CNCC[C@H]2c2cc(=O)n(C)c(C)c2C)C2CC2)cc(OCCOC)c1 (relative stereo)
Exam item: Reorder the items by IC50, least to greatest. Please write the labels in the order that was asked for.
Marked response: c, a, d, b
(c: 0.3 nM, a: 1.4 nM, d: 25 nM, b: 58 nM)

(a) COCCc1ccc(Cl)c(CN(C(=O)[C@H]2CNCC[C@]2(OC)c2ccn(C)c(=O)c2)C2CC2)c1 (relative stereo)
(b) COCCCc1ccc2c(c1)C(N(C(=O)[C@H]1CNCCC1c1ccn(C)c(=O)c1)C1CC1)CCC2 (single isomer, unassigned) [Example 100 Diastereomer B]
(c) COCCCc1cc(CCCOC)c(Cl)c(CN(C(=O)[C@H]2CNCC[C@@H]2c2ccn(C)c(=O)c2)C2CC2)c1 (relative stereo)
(d) COCCCc1cc(CN(C(=O)[C@@H]2CNCC[C@H]2c2ccn(C)c(=O)c2)C2CC2)c2ccccc2c1 (relative stereo)
Exam item: Reorder the items by IC50, least to greatest. Please write the labels in the order that was asked for.
Marked response: c, d, a, b
(c: 0.2 nM, d: 0.4 nM, a: 1.3 nM, b: 3.6 nM)
